- Tested on: Vero E6 infected with SARS-CoV-2
- Run Description: inhibition of SARS-CoV-2 cytopathic effect; higher = more antiviral protection, active = above 15
- Measurement Setup: 100 nM; 48 h
Answer with one of the outcomes TRUE for active, FALSE for inactive

- COc1nc(N)nc2c1ncn2[C@@H]1O[C@H](CO)[C@@H](O)[C@@H]1O [nelarabine]: FALSE
- N[C@H](Cc1ccccc1)C(=O)O [D-phenylalanine]: FALSE
- CCc1cccc2c3c([nH]c12)C(CC)(CC(=O)O)OCC3 (stereo unspecified) [etodolac]: FALSE
- O=C(NCCS(=O)(=O)c1ccc(C(F)(F)F)cn1)c1ccc(Cl)cc1: FALSE
- COC(=O)c1cnn(-c2ccc(F)cc2F)c1/C=N/NC(=S)NC(C)(C)C: FALSE

Enquiry: How was Cc1nc(N)sc1CCN [amthamine] classified in this test?
Return: FALSE

Enquiry: How was Cc1cc(=O)n(-c2ccccc2)[nH]1 [N-demethylantipyrine] classified in this test?
Return: FALSE

Enquiry: How was CC1C=CC=CCCC=CC=CC=CC=CC(OC2OC(C)C(O)C(N)C2O)CC2OC(O)(CC(O)C(O)CCC(O)CC(O)CC(O)CC(=O)OC(C)C(C)C1O)CC(O)C2C(=O)O (stereo unspecified) [nystatin] classified in this test?
Return: FALSE

Enquiry: How was CCN(CC)CCN(Cc1ccc(-c2ccc(C(F)(F)F)cc2)cc1)C(=O)Cn1c(SCc2ccc(F)cc2)nc(=O)c2c1CCC2 [darapladib] classified in this test?
Return: FALSE
